Molecular target: T1, Human CD98 ECD with N-terminal His-tag (human, UniProt P08195 105-529)
T1 construct: The entry includes the linker and the polyhistidine tag; also called huCD98 ECD
T1 sequence: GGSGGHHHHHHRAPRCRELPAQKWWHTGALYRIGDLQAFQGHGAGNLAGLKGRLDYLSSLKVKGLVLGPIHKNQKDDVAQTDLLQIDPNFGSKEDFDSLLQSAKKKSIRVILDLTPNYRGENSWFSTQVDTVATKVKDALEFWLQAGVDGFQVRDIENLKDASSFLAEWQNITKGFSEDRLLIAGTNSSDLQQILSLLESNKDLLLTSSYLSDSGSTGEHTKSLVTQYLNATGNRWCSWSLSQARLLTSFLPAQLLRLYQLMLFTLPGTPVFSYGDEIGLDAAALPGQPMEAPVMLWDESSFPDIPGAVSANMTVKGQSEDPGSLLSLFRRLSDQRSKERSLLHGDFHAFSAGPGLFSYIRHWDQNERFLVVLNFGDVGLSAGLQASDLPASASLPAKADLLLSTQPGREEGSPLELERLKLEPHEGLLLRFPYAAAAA
Assay: SPR (Biacore), recombinant CD98 ECD
Task for the reader: assign each of the following binders its reported koff.

Examples with their reported koff follow.
| binder | koff |
| --- | --- |
| huAb105 (antibody, V domains shown, Framework re-engineered humanized clone (parent huAb15v1), expressed as full-length IgG) VH: EVQLVESGGGLVQPGGSLRLSCAASGFTFSDYTMAWVRQAPGKGLEWVATIIYSGRGTYYRDAVKGRFTISRDNAKNTLYLQMNSLRAEDTAVYYCARQSDHTYYYWGYFDYWGQGTMVTVSS VL: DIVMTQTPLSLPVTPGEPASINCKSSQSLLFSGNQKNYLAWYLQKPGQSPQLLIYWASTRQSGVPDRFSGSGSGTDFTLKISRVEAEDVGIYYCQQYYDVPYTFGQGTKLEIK | 2.4e-05 s⁻¹ |
| huAb109 (antibody, V domains shown, Framework re-engineered humanized clone (parent huAb15v6), expressed as full-length IgG) VH: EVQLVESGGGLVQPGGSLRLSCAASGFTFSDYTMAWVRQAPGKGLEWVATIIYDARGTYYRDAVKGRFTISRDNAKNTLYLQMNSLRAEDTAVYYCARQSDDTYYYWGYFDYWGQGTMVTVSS VL: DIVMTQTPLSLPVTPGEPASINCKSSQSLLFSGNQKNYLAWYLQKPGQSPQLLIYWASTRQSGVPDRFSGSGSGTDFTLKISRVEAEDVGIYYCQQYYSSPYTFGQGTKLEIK | 0.00017 s⁻¹ |
| huAb110 (antibody, human IgG1, kappa, L234A L235A, V domains shown, Framework re-engineered humanized clone (parent huAb15v6); also called CL-huAb110) VH: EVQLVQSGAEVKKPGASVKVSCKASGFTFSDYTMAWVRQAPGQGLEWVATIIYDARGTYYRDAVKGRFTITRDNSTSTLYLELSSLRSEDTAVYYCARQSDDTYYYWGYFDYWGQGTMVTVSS VL: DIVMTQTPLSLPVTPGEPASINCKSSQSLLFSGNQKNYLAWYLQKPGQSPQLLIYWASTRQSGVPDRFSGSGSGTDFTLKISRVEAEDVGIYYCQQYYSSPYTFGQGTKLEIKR | 0.0003 s⁻¹ |
| huAb102 (antibody, human IgG1, kappa, L234A L235A, V domains shown, Framework re-engineered humanized clone (parent huAb3v1); also called CL-huAb102) VH: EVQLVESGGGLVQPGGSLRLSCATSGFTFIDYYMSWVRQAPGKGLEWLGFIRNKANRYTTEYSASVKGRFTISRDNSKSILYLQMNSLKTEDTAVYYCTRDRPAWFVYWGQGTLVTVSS VL: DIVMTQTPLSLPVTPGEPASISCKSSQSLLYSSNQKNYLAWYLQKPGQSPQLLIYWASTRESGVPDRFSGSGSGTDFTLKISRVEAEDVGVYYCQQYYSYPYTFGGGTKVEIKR | 0.0018 s⁻¹ |

// next item, koff requested
Kindly note the recorded koff for huAb107 (antibody, V domains shown, Framework re-engineered humanized clone (parent huAb15v2), expressed as full-length IgG) VH: EVQLVESGGGLVQPGGSLRLSCAASGFTFSDYTMAWVRQAPGKGLEWVATIIYSGRGTYYRDAVKGRFTISRDNAKNTLYLQMNSLRAEDTAVYYCARQSDDTYYYWGYFDYWGQGTMVTVSS VL: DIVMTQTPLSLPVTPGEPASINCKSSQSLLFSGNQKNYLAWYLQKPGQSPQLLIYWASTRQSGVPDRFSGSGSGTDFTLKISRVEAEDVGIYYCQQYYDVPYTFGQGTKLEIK , which is 3.8e-05 s⁻¹
